Where these numbers come from: the METLIN SMRT retention time set (Domingo-Almenara et al. 2019)

assay: gradient 5% acetonitrile 3 min, to 50% in 2 min, to 85% in 15 min, held 3 min, 100 µL/min; conditions: column: Zorbax Extend-C18 2.1 x 50 mm; eluents: water / acetonitrile, 0.1% formic acid
Give RP-LC retention time for every item shown.
# output: numeric value plus its unit

Looking for the measured RP-LC retention time of `Cc1scc2nc(C(=O)Nc3cccc(F)c3)nc(N3CCCC3)c12` , can you help? 567 s

Can you handle `Cc1cc(C)cc(-c2nnc(Cc3nc(-c4ccc5c(c4)OCO5)no3)o2)c1` next? 1070 s

Ok, now `CCOC(=O)c1nc(Nc2ccccc2Cl)c2ccccc2n1` 913 s

What about `Cc1oc(-c2[nH]ncc2C(=O)N2CCCCC2)cc1S(=O)(=O)Nc1ccccc1` ? 730 s

Param item: `CC1=NS(=O)(=O)N(C)C=C1C(=O)OCc1nc(-c2ccccc2C)no1` 1000 s

Ok, now `O=C(Cn1ccc2ccc(N3CCOCC3)nc21)NCc1ccc(Br)cc1` 915 s

Please give the result for `COc1ccccc1CCC(=O)N1CCn2c(C)nnc2C1` too. 607 s

Another molecule to look at: `Cc1nn(CC(=O)Nc2ccc(Cl)cc2F)c(=O)c2noc(C)c12` 796 s

Same question, Cc1ccc(Cl)cc1N1C(=O)CN(S(C)(=O)=O)CC1(C)C(=O)NC1CCCCCCC1 (centres undefined) this time 980 s

Would you kindly repeat that for `O=C(O)c1cc2cc(Cc3cccnc3)ccc2o1` ? 592 s

How about this molecule: `CCOC(=O)C1CCN(c2ncc(S(=O)(=O)c3ccc(CC)cc3)c(N)n2)CC1` 1030 s

Also `Cc1noc(-c2ccc(OC3CN(C(=O)c4ccoc4)C3)cc2)n1` ? 781 s

Try this molecule next: `Cc1cccc(-c2nc(N)n(C(=O)C(C)(C)C)n2)c1` 1090 s

Request: `CCOC(=O)CNC(=O)NCCc1nc2cccnc2n1-c1ccccc1` 608 s

Same again, this time with `Cn1nnnc1SCCNCc1ccc2c(c1)OCCO2` 577 s

Another: `COc1ccc(NC(=O)Cn2c(N3CCCC3)nc(C)cc2=O)cc1` 603 s

How about this molecule: `COc1cccc2c(Nc3ccc(S(N)(=O)=O)cc3)cc(C(=O)N3CCSCC3)nc12` 595 s

And the next one, `O=C(Nc1ccc(C(=O)O)c(O)c1)c1cc2ccccc2c(=O)o1` ? 770 s

Record: `Clc1ccc(Nc2c(-c3ccc(Cl)cc3)nc3ccc(Cl)cn23)cc1` 1090 s
